Molecular target: EGFR (Homo sapiens, UniProt P00533)
Construct: made in house; host or cells: baculovirus expression system
Sequence (P00533 25-1210): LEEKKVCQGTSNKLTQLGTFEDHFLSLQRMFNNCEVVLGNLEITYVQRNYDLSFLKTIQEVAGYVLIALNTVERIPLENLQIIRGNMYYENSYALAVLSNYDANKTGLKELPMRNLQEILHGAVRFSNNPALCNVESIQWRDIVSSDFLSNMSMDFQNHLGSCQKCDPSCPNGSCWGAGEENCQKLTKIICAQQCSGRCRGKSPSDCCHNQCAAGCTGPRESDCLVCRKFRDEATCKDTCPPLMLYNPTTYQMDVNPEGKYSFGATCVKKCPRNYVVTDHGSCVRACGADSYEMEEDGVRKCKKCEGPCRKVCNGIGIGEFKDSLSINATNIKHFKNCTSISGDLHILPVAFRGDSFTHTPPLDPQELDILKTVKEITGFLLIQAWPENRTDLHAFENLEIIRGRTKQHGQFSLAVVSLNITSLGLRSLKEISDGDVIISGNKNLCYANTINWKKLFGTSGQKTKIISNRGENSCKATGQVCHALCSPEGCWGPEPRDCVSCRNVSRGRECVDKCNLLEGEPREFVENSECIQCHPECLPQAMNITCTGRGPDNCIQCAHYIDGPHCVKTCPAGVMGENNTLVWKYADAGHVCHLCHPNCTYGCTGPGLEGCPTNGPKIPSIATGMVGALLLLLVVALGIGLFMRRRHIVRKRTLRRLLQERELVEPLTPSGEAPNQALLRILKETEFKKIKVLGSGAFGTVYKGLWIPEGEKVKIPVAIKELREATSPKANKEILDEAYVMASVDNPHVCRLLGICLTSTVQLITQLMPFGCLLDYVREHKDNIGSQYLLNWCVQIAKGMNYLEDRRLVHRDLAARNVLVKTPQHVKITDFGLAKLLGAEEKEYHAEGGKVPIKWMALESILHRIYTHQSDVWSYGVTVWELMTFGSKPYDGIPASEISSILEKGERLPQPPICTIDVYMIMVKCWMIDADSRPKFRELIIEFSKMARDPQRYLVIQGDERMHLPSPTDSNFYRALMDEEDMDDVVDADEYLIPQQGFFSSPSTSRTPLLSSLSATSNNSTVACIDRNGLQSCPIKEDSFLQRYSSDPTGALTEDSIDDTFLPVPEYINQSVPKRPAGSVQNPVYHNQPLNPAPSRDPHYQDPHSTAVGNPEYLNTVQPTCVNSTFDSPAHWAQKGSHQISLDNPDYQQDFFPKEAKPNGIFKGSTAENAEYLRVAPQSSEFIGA
Assay: EGFR substrate phosphorylation assay (HTRF)
Type: biochemical
pIC50: −log10 of the molar value.
Listed here: items and their measured pIC50.

COMPOUND: O=S(=O)(Nc1cccc(-c2nc(N3CCCCC3)sc2-c2ccnc(Nc3ccc(N4CCOCC4)nc3)n2)c1)c1c(F)cccc1F [Example 151]
RESULT: < 6.00
--
COMPOUND: Cc1cc(CS(C)(=O)=O)ccc1Nc1nccc(-c2sc(C(C)C)nc2-c2ccc(F)c(NS(=O)(=O)c3c(F)cccc3F)c2)n1 [Example 138]
RESULT: < 6.00
--
COMPOUND: O=S(=O)(Nc1cc(-c2nc(N3CCCC3)sc2-c2ccnc(Nc3ccc(N4CCOCC4)nc3)n2)ccc1F)c1c(F)cccc1F [Example 26]
RESULT: 6.00 to 7.00
--
COMPOUND: COc1cc(N2CCN(CCS(C)(=O)=O)CC2)c(C)cc1Nc1nccc(-c2sc(N)nc2-c2cccc(NS(=O)(=O)c3c(F)cccc3F)c2)n1 [Example 63]
RESULT: 6.00 to 7.00
--
COMPOUND: Cc1nc(Cl)sc1S(=O)(=O)Nc1cccc(-c2nc(C(C)C)sc2-c2ccnc(Nc3ccc(N4CCOCC4)nc3)n2)c1 [Example 42]
RESULT: < 6.00

## Task Query for EGFR (Homo sapiens, UniProt P00533): what pIC50 does the record show for CC(C)c1nc(-c2ccc(F)c(NS(=O)(=O)c3c(F)cccc3F)c2)c(-c2ccnc(Nc3ccc(N4CCN5CCOC[C@H]5C4)nc3)n2)s1 [Example 97] ?
## Result 6.00 to 7.00

## Task Given the entry CCc1nc(-c2cccc(NS(=O)(=O)c3ccccc3)c2)c(-c2ccnc(Nc3ccc(N4CCN(C(C)=O)CC4)nc3)n2)s1 [Example 3] , what pIC50 was observed with EGFR (Homo sapiens, UniProt P00533)?
## Result < 6.00

## Task State its pIC50 on EGFR (Homo sapiens, UniProt P00533): COCCN1CCN(c2ccc(Nc3nccc(-c4sc(C(C)C)nc4-c4cccc(NS(=O)(=O)c5ccccc5)c4)n3)cn2)CC1 [Example 6]
## Result < 6.00
